system: Staphylococcus aureus (OC8525), a methicillin-resistant strain (MRSA); assay: In vivo efficacy in a mouse systemic infection model; conditions: Staphylococcus aureus, 72 h; Swiss Webster mice infected i.p. with MRSA, oral dose 1 h later, 3 day survival; normalized to parent content; read-out: ED50 p.o.
property.label: ED50

Any idea what ED50 was measured for COc1c(N2CCC/C(=C(\F)CNC(=O)[C@@H](N)Cc3ccccc3)C2)c(F)cc2c(=O)c(C(=O)O)cn(C3CC3)c12.Cl [Compound 3] ?
> 14.8 mg/kg

Another molecule to check: COc1c(N2CCC/C(=C(\F)CNC(=O)[C@@H]3CCCN3C(=O)[C@@H](N)CCCCN)C2)c(F)cc2c(=O)c(C(=O)O)cn(C3CC3)c12.Cl.Cl [Compound 15]
> 13 mg/kg

Another molecule to check: CCOC(=O)c1cn(C2CC2)c2c(OC)c(N3CCC/C(=C(\F)CN)C3)c(F)cc2c1=O.Cl [Compound 11]
6.7 mg/kg

* * *

experiment: Solubility of parent compound in citrate buffer (HPLC); assay type: physicochemical; conditions: aqueous buffer, thermodynamic from solid; 50 mM citrate buffer, pH 6.75, mixed overnight
property.label: solubility (µg/mL)
Give the value, in units of µg/mL, as a plain number.

Any idea what solubility was measured for "COc1c(N2CCC/C(=C(\F)CN)C2)c(F)cc2c(=O)c(C(=O)O)cn(C3CC3)c12" ?
40

* * *

assay: Rat pharmacokinetics; type: in vivo, Sprague-Dawley rats; conditions: Sprague-Dawley, in vivo, iv, male rats, 2 mg/kg i.v., analyte: the administered compound itself, read-out: Vss
property.label: Vd (L/kg)
Give the value, in units of L/kg, as a plain number.

Any idea what Vd was measured for "COc1c(N2CCC/C(=C(\F)CN)C2)c(F)cc2c(=O)c(C(=O)O)cn(C3CC3)c12" ?
6.08

* * *

test: Aqueous solubility, modified procedure (saturated solutions, RP-HPLC); assay type: physicochemical; details: pH 4, aqueous buffer, thermodynamic from solid, 100 mM phosphate buffer, read-out: Aqueous Solubility pH~4
property.label: solubility at 18 h

Any idea what solubility at 18 h was measured for "COc1c(N2CCC/C(=C(\F)CNC(=O)[C@@H]3CCCN3C(=O)[C@@H](N)CCCCN)C2)c(F)cc2c(=O)c(C(=O)O)cn(C3CC3)c12.Cl.Cl" ?
> 4600 µg/mL

Another compound to check: "COc1c(N2CCC/C(=C(\F)CNC(=O)[C@@H](N)CN(C)C)C2)c(F)cc2c(=O)c(C(=O)O)cn(C3CC3)c12.Cl.Cl"
6890 µg/mL

Another compound to check: "COc1c(N2CCC/C(=C(\F)CNC(=O)CNC(=O)[C@@H](N)CCC(=O)O)C2)c(F)cc2c(=O)c(C(=O)O)cn(C3CC3)c12.Cl"
> 3690 µg/mL

* * *

test: Rat pharmacokinetics; type: in vivo, Sprague-Dawley rats; conditions: Sprague-Dawley, in vivo, iv, male rats, 2 mg/kg i.v., analyte: the administered compound itself
property.label: AUC (ng·h/mL)
Give the value, in units of ng·h/mL, as a plain number.

Any idea what AUC was measured for COc1c(N2CCC/C(=C(\F)CN)C2)c(F)cc2c(=O)c(C(=O)O)cn(C3CC3)c12 [Compound (M)] ?
718
